Origin of measurements: patent US20130005747A1

system: MCF7; assay: Cell line IC50 (Table 3); type: cell-based, human; conditions: Ras WT, Breast
measured-property: pIC50
// field semantics: pIC50 = negative decimal log of concentration (mol/L)

Tell me pIC50 reported for CC[C@H](Nc1nc(NCc2cnc(C)cc2C)c2ncn(C(C)C)c2n1)[C@@H](C)O [Compound A] 6.52

----------
tested on: cell lines of Table 3; test: Cell line panel of Table 3, summary over cell lines; assay type: cell-based, human; details: median over the cell lines of Table 3
measured-property: pIC50
Value format note: pIC50 is -log10 of concentration (mol/L); just state the number.

Complete the entry with pIC50 for "CC[C@H](Nc1nc(NCc2cnc(C)cc2C)c2ncn(C(C)C)c2n1)[C@@H](C)O" 6.40

----------
system: H358; assay: Cell line IC50 (Table 3); format: cell-based, human; conditions: Homo sapiens, NCI-H358, K-Ras G12C, Lung
Kindly state IC50 for each of the entries shown.
Entry rule: numbers only, all in nM.

Write down the reported IC50 (system: H358) of CC[C@H](Nc1nc(NCc2cccnc2)c2ncn(C(C)C)c2n1)C(C)(C)O [Compound C] 800

Name the value of IC50 reported for CC[C@H](Nc1nc(NCc2cccnc2)c2ncn(C(C)C)c2n1)[C@@H](C)O [Compound D] when tested on H358. 300

Write IC50 of CC[C@@H](Nc1nc(NCc2cccnc2)c2ncn(C(C)C)c2n1)C(C)(C)O [Compound B] ; system used: H358 2700

----------
tested on: Colo205; test: Cell line IC50 (Table 3); format: cell-based, human; details: Ras WT, Colon
measured-property: pIC50
Scale explanation: pIC50 corresponds to minus log10 of a concentration expressed in moles per litre.

Could you please provide reported pIC50 for "CC[C@H](Nc1nc(NCc2cnc(C)cc2C)c2ncn(C(C)C)c2n1)[C@@H](C)O" ? Thanks! 6.52

----------
Kindly state IC50 for each of the entries shown.
tested on: A549; test: Cell line IC50 (Table 3); type: cell-based, human; conditions: Homo sapiens, K-Ras G12S, Lung
Your answer should be a plain number; it is taken to be in nM.

State recorded IC50 with A549, entry "CC[C@@H](Nc1nc(NCc2cccnc2)c2ncn(C(C)C)c2n1)C(C)(C)O" , no comment. 3000

Provide the reported IC50 (system: A549) for "CC[C@H](Nc1nc(NCc2cccnc2)c2ncn(C(C)C)c2n1)C(C)(C)O" 1600

Report measured IC50 on A549; entry: "CC[C@H](Nc1nc(NCc2cccnc2)c2ncn(C(C)C)c2n1)[C@@H](C)O" 500

----------
tested on: NCI-H929; test: Cell line IC50 (Table 3); assay type: cell-based, human; conditions: Homo sapiens, N-Ras, Myeloma
Hi there, I'd appreciate the recorded IC50 for every entry that follows.
// units = µM; emit number, no label

Recall and state the measured IC50 for "CC[C@H](Nc1nc(NCc2cccnc2)c2ncn(C(C)C)c2n1)[C@@H](C)O" . 0.8

Quick one: give measured IC50 for "CC[C@H](Nc1nc(NCc2cccnc2)c2ncn(C(C)C)c2n1)C(C)(C)O" 2.4

Tell us which IC50 value is on record for "CC[C@@H](Nc1nc(NCc2cccnc2)c2ncn(C(C)C)c2n1)C(C)(C)O" 5.2
